assayed_target: Tubulin (Sus scrofa) (UniProt P02554+P02550)
Sequence (P02550 whole entry, looked up): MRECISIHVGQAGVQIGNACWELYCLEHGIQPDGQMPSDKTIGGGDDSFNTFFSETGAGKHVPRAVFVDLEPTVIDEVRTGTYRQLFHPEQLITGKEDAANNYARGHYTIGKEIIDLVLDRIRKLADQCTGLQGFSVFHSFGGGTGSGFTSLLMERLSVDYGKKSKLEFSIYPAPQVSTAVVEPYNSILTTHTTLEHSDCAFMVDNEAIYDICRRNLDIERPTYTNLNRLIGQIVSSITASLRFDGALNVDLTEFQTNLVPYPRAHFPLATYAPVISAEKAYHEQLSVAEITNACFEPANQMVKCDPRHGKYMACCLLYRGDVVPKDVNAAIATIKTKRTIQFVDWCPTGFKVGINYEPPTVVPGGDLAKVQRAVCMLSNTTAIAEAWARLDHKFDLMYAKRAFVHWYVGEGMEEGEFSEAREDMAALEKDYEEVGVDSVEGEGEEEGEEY
Sequence (P02554 whole entry, looked up): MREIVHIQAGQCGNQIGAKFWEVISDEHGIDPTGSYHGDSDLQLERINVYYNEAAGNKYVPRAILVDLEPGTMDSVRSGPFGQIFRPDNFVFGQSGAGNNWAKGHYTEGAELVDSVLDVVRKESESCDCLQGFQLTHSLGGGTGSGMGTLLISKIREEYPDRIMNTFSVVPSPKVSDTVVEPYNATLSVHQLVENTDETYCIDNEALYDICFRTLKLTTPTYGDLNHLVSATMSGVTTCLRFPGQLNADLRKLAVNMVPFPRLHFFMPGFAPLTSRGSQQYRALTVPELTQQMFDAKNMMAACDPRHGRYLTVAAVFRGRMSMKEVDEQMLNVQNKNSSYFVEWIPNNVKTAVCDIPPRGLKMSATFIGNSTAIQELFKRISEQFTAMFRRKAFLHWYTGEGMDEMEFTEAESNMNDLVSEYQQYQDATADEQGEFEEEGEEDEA
experiment_notes: Inhibition of pig tubulin polymerization at 5 uM incubated for 20 mins at 37 degC by fluorescence based tubulin polymerization inhibition assay
Type: protein assay
property_measured: inhibition (%)

Please review the entries below; each comes with its answer.
So, "CC[C@H](C)[C@@H](C(=O)N[C@H]1CCO[C@@H](c2nc(C(=O)NCCc3ccccc3)cs2)C1)N(C)C" ? Its inhibition was 15.8

So, "CC[C@H](C)[C@H](NC(=O)CN(C)C)C(=O)N[C@H]1CCO[C@@H](c2nc(C(=O)NCCc3ccccc3)cs2)C1" ? Its inhibition was 19.9

So, "CC[C@H](C)[C@H](NC(=O)[C@H]1CCCCN1C)C(=O)N[C@H]1CCO[C@@H](c2nc(C(=O)NCCc3ccccc3)cs2)C1" ? Its inhibition was 1.62

So, "CC[C@H](C)[C@H](NC(=O)[C@H]1CCCCN1C)C(=O)N[C@H]1CCO[C@@H](c2nc(C(=O)NC(C)C)cs2)C1" ? Its inhibition was 5.35

So, "CC[C@H](C)[C@H](NC(=O)[C@H]1CCCCN1C)C(=O)N[C@@H]1CCO[C@@H](c2nc(C(=O)NC(C)C)cs2)C1" ? Its inhibition was 3.9

So, "CC[C@H](C)[C@H](N)C(=O)N[C@H]1CCO[C@@H](c2nc(C(=O)NCCc3ccccc3)cs2)C1" ? Its inhibition was 8.52

So, "CC[C@]1(O)C[C@@H]2CN(CCc3c([nH]c4ccccc34)[C@@](C(=O)OC)(c3cc4c(cc3OC)N(C)[C@H]3[C@@](O)(C(=O)OC)[C@H](OC(C)=O)[C@]5(CC)C=CCN6CC[C@]43[C@@H]65)C2)C1" ? Its inhibition was 73.9

So, "CC[C@H](C)[C@H](NC(=O)[C@H]1CCCCN1C)C(=O)N[C@@H]1CCO[C@@H](c2nc(C(=O)NCCc3ccccc3)cs2)C1" ? Its inhibition was 2.23

So, "CC[C@H](C)[C@H](NC(=O)[C@H]1CCCCN1C)C(=O)N[C@H]1CCO[C@H](c2nc(C(=O)NCCc3ccccc3)cs2)C1" ? Its inhibition was 5.61

So, "CC[C@H](C)[C@H](NC(=O)[C@H]1CCCCN1C)C(=O)N(C)[C@H]1CCO[C@@H](c2nc(C(=O)NCCc3ccccc3)cs2)C1" ? Its inhibition was 5.87

1. CC[C@H](C)[C@H](NC(=O)[C@H]1CCCCN1C)C(=O)N[C@@H]1CCO[C@H](c2nc(C(=O)NC(C)C)cs2)C1
2. CC[C@H](C)[C@H](NC(=O)[C@H]1CCCCN1C)C(=O)N(C)[C@H]1CCO[C@@H](c2nc(C(=O)NCCN3CCOCC3)cs2)C1
3. CC[C@H](C)[C@H](NC(=O)CN(C)C)C(=O)N[C@H]1CCO[C@@H](c2nc(C(=O)NC(C)C)cs2)C1
4. CC[C@H](C)[C@H](NC(=O)[C@H]1CCCCN1C)C(=O)N(C)[C@H]1CCO[C@@H](c2nc(C(=O)NCCc3ccccn3)cs2)C1
5. CC[C@H](C)[C@H](NC(=O)[C@H]1CCCCN1C)C(=O)N[C@@H]1CCO[C@H](c2nc(C(=O)NCCc3ccccc3)cs2)C1
Prompt: Number of compounds to sort: 5. Sort criterion: inhibition, ascending. Record the ranking as a list of labels in the requested order.
Response: 1, 5, 2, 3, 4
